Would you kindly list MIC for each of these molecules?
Tested on: S.aureus SR3637
ASSAY_COMMENT: MIC by agar dilution method
Type: cell-based
STUDY_CONDITIONS: S.aureus SR3637 (MRSA), G(+)
Value and unit, in that order.

Data request: Can you look up the measured MIC of CCON=C(C(=O)NC1C(=O)N2C(C(=O)[O-])=C(C[n+]3cccc4c3ncn4CCCNC)CSC12)c1nsc(N)n1.Cl (centres unmarked) [Ex6-2] for me?
Data returned: 3.13 µg/mL

Data request: Another molecule to look at: CNCCCn1cnc2c1ccc[n+]2CC1=C(C(=O)[O-])N2C(=O)C(NC(=O)C(=NOCF)c3nsc(N)n3)C2SC1.Cl (centres unmarked) [Ex6-3]
Data returned: 6.25 µg/mL

Data request: Another molecule to look at: CCON=C(C(=O)NC1C(=O)N2C(C(=O)[O-])=C(C[n+]3cccc4c3ncn4C3CCNC3)CSC12)c1nsc(N)n1.Cl (centres unmarked) [Ex4-1]
Data returned: 6.25 µg/mL

Data request: Another molecule to look at: CCON=C(C(=O)NC1C(=O)N2C(C(=O)[O-])=C(C[n+]3cccc4c3ncn4CCCN)CSC12)c1nsc(N)n1.Cl (centres unmarked) [Ex5-2]
Data returned: 3.13 µg/mL

Data request: Another molecule to look at: Cl.NCCCn1cnc2c1ccc[n+]2CC1=C(C(=O)[O-])N2C(=O)C(NC(=O)C(=NOCF)c3nsc(N)n3)C2SC1 (centres unmarked) [Ex5-3]
Data returned: 3.13 µg/mL

* * *

System: S.aureus SR3637
ASSAY_COMMENT: ED50 mouse/S.aureus SR3637
Type: in vivo
MEASURE_NAME: ED50 (mg/kg)
The response must be a number in mg/kg with no trailing unit.

Data request: For the record CNCCCn1cnc2c1ccc[n+]2CC1=C(C(=O)[O-])N2C(=O)C(NC(=O)C(=NOCF)c3nsc(N)n3)C2SC1.Cl (stereo not shown) [Ex6-3] , what value of ED50 is listed for S.aureus SR3637?
Data returned: 6.43

Data request: Another compound to look at: CCON=C(C(=O)NC1C(=O)N2C(C(=O)[O-])=C(C[n+]3cccc4c3ncn4CCCNC)CSC12)c1nsc(N)n1.Cl (stereo not shown) [Ex6-2]
Data returned: 7.92

Data request: Another compound to look at: CCON=C(C(=O)NC1C(=O)N2C(C(=O)[O-])=C(C[n+]3cccc4c3ncn4C3CCNC3)CSC12)c1nsc(N)n1.Cl (stereo not shown) [Ex4-1]
Data returned: 11.3

Data request: Another compound to look at: Cl.NCCCn1cnc2c1ccc[n+]2CC1=C(C(=O)[O-])N2C(=O)C(NC(=O)C(=NOCF)c3nsc(N)n3)C2SC1 (stereo not shown) [Ex5-3]
Data returned: 5.66
